Here's a roundup of IC50 values tested on Serine/threonine-protein kinase B-raf (Homo sapiens), taken from various published works.

Q) Item `N#Cc1ccnc2[nH]cc(C(=O)c3c(F)ccc(NS(=O)(=O)N4CCOCC4)c3F)c12` has what recorded IC50?
A) ≤ 10 µM

Q) Item: `O=C(Nc1cc(N2CCOCC2)cc(C(F)(F)F)c1)Nc1ccc(Oc2ccnc(NC(=O)C3CC3)c2)c(F)c1`
A) 0.0298 µM

Q) Item: `CCCS(=O)(=O)Nc1ccc(F)c(C(=O)c2c[nH]c3ncc(CCCOC)cc23)c1F`
A) ≤ 10 µM

Q) Item: `C#Cc1cnc2[nH]cc(C(=O)c3c(F)ccc(NS(=O)(=O)CCC)c3F)c2c1`
A) ≤ 10 µM

Q) Item: `N#Cc1cnc2[nH]cc(C(=O)c3c(F)ccc(NS(=O)(=O)c4ccccc4)c3F)c2c1`
A) < 0.01 µM

Q) Item: `O=C(Nc1ccc(Oc2ccnc(NC(=O)C3CC3)c2)c(F)c1)Nc1ccc2[nH]cc(F)c2c1`
A) 0.09 µM

Q) Item: `N#Cc1ccnc2[nH]cc(C(=O)c3c(F)ccc(NS(=O)(=O)c4cccc(F)c4)c3F)c12`
A) ≤ 10 µM

Q) Item: CC1CN(c2cc(NC(=O)Nc3ccc(Oc4ccnc(NC(=O)C5CC5)c4)c(F)c3)cc(C(F)(F)F)c2)CCO1 (centres unmarked)
A) 0.0225 µM

Q) Item: `CCCS(=O)(=O)Nc1ccc(F)c(C(=O)c2c[nH]c3ncc(-c4ccc(F)nc4)cc23)c1F`
A) < 0.01 µM

Q) Item: `Nc1ncnc2c1c(-c1ccc(Oc3ccccc3)cc1)nn2C[C@H]1SSC[C@H]1O`
A) 1 to 10 µM

Q) Item: `O=C(Nc1cccc(OC(F)(F)F)c1)Nc1ccc(Oc2ccnc(NC(=O)C3CC3)c2)c(F)c1`
A) 0.0098 µM

Q) Item: `Fc1nc(NCc2cccnc2OC2CCCCC2)ccc1Cc1c[nH]c2ncncc12`
A) ≤ 10 µM

Q) Item: `COc1ccc(CNc2ccc(Cc3c[nH]c4ncncc34)c(F)n2)c(OC)n1`
A) ≤ 10 µM

Q) Item: `O=C(c1c(F)ccc(NS(=O)(=O)C2CCCCC2)c1F)c1c[nH]c2nccc(Cl)c12`
A) ≤ 10 µM

Q) Item: `N#Cc1ccnc2[nH]cc(C(=O)c3c(F)ccc(NS(=O)(=O)c4cccnc4)c3F)c12`
A) ≤ 10 µM

Q) Item: `CCCS(=O)(=O)Nc1ccc(F)c(C(=O)c2c[nH]c3ncc(C(=O)NC)cc23)c1F`
A) ≤ 10 µM

Q) Item: `O=C(c1c(F)ccc(NS(=O)(=O)C2CCCCC2)c1F)c1c[nH]c2ncc(Cl)cc12`
A) ≤ 10 µM
